Every entry's value here was drawn from patent US20200010567A1.

Target: T1, (PA)15: H-C(PA)15-OH
T1 construct: synthetic, not coupled to BSA; also called poly-PA DPR protein peptide
T1 peptide: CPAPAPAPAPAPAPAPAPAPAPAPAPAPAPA
Experiment: indirect ELISA, coated peptide

{"columns": ["BINDER", "binding result"],
 "data": [
  ["NI-308.24E11 (antibody, V domains shown, Recombinant complete human IgG1, kappa) VH: QVQLQESGPGLVKPSETLSLTCTVSTTSLRSYFWSWIRQPPGKGLEWIGYVYYSGSTIYNPSLKNRVTISIDTSKNQFSLNLRSVTAADTAMYFCARGVPAETDARDFPPYYFDHWGQGTLVTVSS VL: CDIQLTQSPSSLSASVGNRITFTCQASQDIRYYLNWYQQKPGKAPKLLIYDVSNLDTGVPPRFSGSGSGTNFTFTISSLQPEDIAVYYCQQYEGLPVTFGGGTKVEIK", "no binding"],
  ["NI-308.46E9 (antibody, V domains shown, Recombinant complete human IgG1, kappa) VH: QVQLQESGPGLVKPSETLSLTCTVSGASISGSTYYWGWIRQPPGKGLEYIGRIYYSGSTYYNPSLKSRATISVDTSKNQLSLTLSSVTAADTAVYYCVRPFYAGSGNSPFDYWGQGTLVTVSS VL: CEIVLTQSPATVSVSPGERATLSCRASQSVSTNLAWYQQKPGQPPRLLIYGASTRATGIPARFSGSGSGAEFTLTISSLQSEDFVVYYCQQYNNWPPAFGGGTKVEIK", "no binding"],
  ["NI-308.6B11 (antibody, V domains shown, Recombinant complete human IgG1, kappa) VH: EVQLVQSGAEVKRPGASVKVSCKVSGYTLTELSMHWVRQAPGKGLEWMGGFDPEDGETVYAQKFQGRVTMTEDTSTDTAYMELSSLRSEDTALYHCATYGSSWHWNEGNEGSYYFDYWGQGTLVTVSS VL: CDIQMTQSPSSLSASVGDRVTITCQASQDISIYLNWYQQKPGKAPKLLIYDASNLETGVPSRFSGSGSGTDFTFTISGLQPEDVARYYCQQYDDLPITFGQGTRLEIK", "no binding"]
]}
